Consider the following compounds and their measured EC50 readings.
System: MT4
Assay: Cytotoxicity against human MT4 cells by MTT assay
Assay type: cell-based
Report the figure in µM without appending any unit label.

See these solved cases before continuing.
Record "COc1cccc2c1c(C(=O)/C=C(\O)C(=O)O)cn2Cc1ccc(F)cc1" , field EC50: 41.1

Record "CCOC(=O)/C(O)=C/C(=O)c1cn(Cc2cc(F)ccc2Cl)c2cccc(OC)c12" , field EC50: 39.6

Record "COc1cc2c(cc1Cc1cccc(Cl)c1F)c(=O)c(C(=O)O)cn2[C@H](CO)C(C)C" , field EC50: 2.12

Record "CCOC(=O)/C(O)=C/C(=O)c1cn(Cc2ccc(Cl)cc2)c2cccc(OC)c12" , field EC50: 41.3

Record "CCOC(=O)/C(O)=C/C(=O)c1cn(Cc2cccc(Cl)c2F)c2cccc(OC)c12" , field EC50: 46.9

Next:
Record "CCOC(=O)/C(O)=C/C(=O)c1cn(Cc2ccc(F)cc2Cl)c2cccc(OC)c12" , field EC50: 51.4

Record "COc1cccc2c1c(C(=O)/C=C(\O)C(=O)O)cn2Cc1ccc(F)c(Cl)c1" , field EC50: 31.7

Record "COc1cccc2c1c(C(=O)/C=C(\O)C(=O)O)cn2Cc1ccc(Cl)c(F)c1" , field EC50: 23.3

Record "CCOC(=O)/C(O)=C/C(=O)c1cn(Cc2ccc(Cl)c(F)c2)c2cccc(OC)c12" , field EC50: 63.7
